Reference source: patent US20150065440A1

Quick reference for IC50 among some molecules
system: HUVEC proliferation induced by VEGF; test: Growth factor induced endothelial cell proliferation assay, VEGF; type: cell-based, human; details: Homo sapiens, HUVEC, 72 h; read-out: VEGF (IC50) inhibition of HUVEC proliferation

Would you please look over these solved cases?
CC(C)CCCC(C)C1CCC2C3CCC4CC(OC5OC(COS(=O)(=O)O)C(OC6OC(COS(=O)(=O)O)C(OS(=O)(=O)O)C(OS(=O)(=O)O)C6OS(=O)(=O)O)C(OS(=O)(=O)O)C5OS(=O)(=O)O)CCC4(C)C3CCC12C (stereo not drawn) : 5170 nM
CC(C)CCCC(C)C1CCC2C3CCC4CC(OCc5cn(C6OC(COS(=O)(=O)O)C(OC7OC(COS(=O)(=O)O)C(OS(=O)(=O)O)C(OS(=O)(=O)O)C7OS(=O)(=O)O)C(OS(=O)(=O)O)C6OS(=O)(=O)O)nn5)CCC4(C)C3CCC12C (stereo not drawn) : 2620 nM
CC(C)CCC[C@@H](C)[C@H]1CC[C@H]2[C@@H]3CC[C@H]4C[C@@H](OCc5cn([C@@H]6O[C@H](COS(=O)(=O)O)[C@@H](O[C@H]7O[C@H](COS(=O)(=O)O)[C@@H](OS(=O)(=O)O)[C@H](OS(=O)(=O)O)[C@H]7OS(=O)(=O)O)[C@H](OS(=O)(=O)O)[C@H]6OS(=O)(=O)O)nn5)CC[C@]4(C)[C@H]3CC[C@]12C : 1130 nM

Query block: In one line, give reported IC50 of the entry CC(C)CCC[C@@H](C)[C@H]1CC[C@H]2[C@@H]3CC[C@H]4C[C@@H](O[C@H]5O[C@H](COS(=O)(=O)O)[C@@H](OS(=O)(=O)O)[C@H](OS(=O)(=O)O)[C@@H]5O[C@H]5O[C@H](COS(=O)(=O)O)[C@@H](OS(=O)(=O)O)[C@H](OS(=O)(=O)O)[C@@H]5OS(=O)(=O)O)CC[C@]4(C)[C@H]3CC[C@]12C .
Result block: 1850 nM

Query block: In one line, give reported IC50 of the entry CC(C)CCC[C@@H](C)[C@H]1CC[C@H]2[C@@H]3CCC4CC(O[C@@H]5O[C@H](COS(=O)(=O)O)[C@@H](O[C@@H]6O[C@H](COS(=O)(=O)O)[C@@H](OS(=O)(=O)O)[C@H](OS(=O)(=O)O)[C@H]6OS(=O)(=O)O)[C@H](OS(=O)(=O)O)[C@H]5OS(=O)(=O)O)CC[C@]4(C)[C@H]3CC[C@]12C (stereo partly drawn) .
Result block: 5560 nM

Query block: In one line, give reported IC50 of the entry CC(C)CCC[C@@H](C)[C@H]1CC[C@H]2[C@@H]3CC[C@H]4C[C@@H](O[C@H]5O[C@H](COS(=O)(=O)O)[C@@H](OS(=O)(=O)O)[C@H](OS(=O)(=O)O)[C@@H]5OS(=O)(=O)O)CC[C@]4(C)[C@H]3CC[C@]12C .
Result block: 2240 nM

---

Biological target: VEGF (Homo sapiens)
Sequence (P15692 207-395): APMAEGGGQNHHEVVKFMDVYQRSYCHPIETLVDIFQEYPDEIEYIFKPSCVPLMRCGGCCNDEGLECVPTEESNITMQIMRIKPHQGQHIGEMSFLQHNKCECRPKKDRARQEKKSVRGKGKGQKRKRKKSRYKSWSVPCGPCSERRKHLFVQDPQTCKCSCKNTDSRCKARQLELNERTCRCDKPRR
Quick reference for pKd among some molecules
Quick note: pKd means taking -log10 of the concentration in moles per liter.

CC(C)CCC[C@@H](C)[C@H]1CC[C@H]2[C@@H]3CC[C@H]4C[C@@H](OCc5cn([C@@H]6O[C@H](COS(=O)(=O)O)[C@@H](O[C@H]7O[C@H](COS(=O)(=O)O)[C@@H](OS(=O)(=O)O)[C@H](OS(=O)(=O)O)[C@H]7OS(=O)(=O)O)[C@H](OS(=O)(=O)O)[C@H]6OS(=O)(=O)O)nn5)CC[C@]4(C)[C@H]3CC[C@]12C [Compound 97] : 5.71

Now consider a different molecule.
Query block: In one line, give reported pKd of the entry CC(C)CCCC(C)C1CCC2C3CCC4CC(OC5OC(COS(=O)(=O)O)C(OC6OC(COS(=O)(=O)O)C(OC7OC(COS(=O)(=O)O)C(OS(=O)(=O)O)C(OS(=O)(=O)O)C7OS(=O)(=O)O)C(OS(=O)(=O)O)C6OS(=O)(=O)O)C(OS(=O)(=O)O)C5OS(=O)(=O)O)CCC4(C)C3CCC12C (centres unmarked) [Compound 87] .
Result block: 6.72

---

test system: pooled normal human plasma; assay: Anticoagulant activity, APTT; details: 0.1 mg/mL in normal pooled human plasma
propertyLabel: APTT

Would you please look over these solved cases?
CC(C)CCCC(C)C1CCC2C3CCC4CC(OCc5cn(C6OC(COS(=O)(=O)O)C(OC7OC(COS(=O)(=O)O)C(OC8OC(COS(=O)(=O)O)C(OS(=O)(=O)O)C(OS(=O)(=O)O)C8OS(=O)(=O)O)C(OS(=O)(=O)O)C7OS(=O)(=O)O)C(OS(=O)(=O)O)C6OS(=O)(=O)O)nn5)CCC4(C)C3CCC12C (stereo not drawn) [Compound 76] : 61.2 s
CCCCCCCCCCCCOC1OC(COS(=O)(=O)O)C(OS(=O)(=O)O)C(OS(=O)(=O)O)C1OC1OC(COS(=O)(=O)O)C(OS(=O)(=O)O)C(OC2OC(COS(=O)(=O)O)C(OS(=O)(=O)O)C(OC3OC(COS(=O)(=O)O)C(OS(=O)(=O)O)C(OC4OC(COS(=O)(=O)O)C(OS(=O)(=O)O)C(OS(=O)(=O)O)C4OS(=O)(=O)O)C3OS(=O)(=O)O)C2OS(=O)(=O)O)C1OS(=O)(=O)O (stereo not drawn) [Compound 4] : 125.9 s

Query block: In one line, give reported APTT of the entry CC(C)CCCC(C)C1CCC2C3CCC4CC(OC5OC(COS(=O)(=O)O)C(OC6OC(COS(=O)(=O)O)C(OC7OC(COS(=O)(=O)O)C(OC8OC(COS(=O)(=O)O)C(OS(=O)(=O)O)C(OS(=O)(=O)O)C8OS(=O)(=O)O)C(OS(=O)(=O)O)C7OS(=O)(=O)O)C(OS(=O)(=O)O)C6OS(=O)(=O)O)C(OS(=O)(=O)O)C5OS(=O)(=O)O)CCC4(C)C3CCC12C (stereo not drawn) [Compound 65] .
Result block: 71.9 s

---

target: FGF-2 (Homo sapiens); assay: Growth factor binding assay (SPR solution affinity), FGF-2; settings: SPR, HBS-EP buffer containing 0.3 M NaCl, 25° C.; read-out: Kd FGF-2
Sequence (P09038 143-288, species assumed): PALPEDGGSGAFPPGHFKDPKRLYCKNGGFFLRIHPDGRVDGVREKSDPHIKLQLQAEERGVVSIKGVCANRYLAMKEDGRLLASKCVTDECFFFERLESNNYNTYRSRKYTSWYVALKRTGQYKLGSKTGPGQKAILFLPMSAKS
propertyLabel: Kd (nM)
Could you give me the number in nM? Just the number is fine.

Query block: In one line, give reported Kd of the entry CC(C)CCCC(C)C1CCC2C3CCC4CC(OCc5cn(C6OC(COS(=O)(=O)O)C(OC7OC(COS(=O)(=O)O)C(OC8OC(COS(=O)(=O)O)C(OS(=O)(=O)O)C(OS(=O)(=O)O)C8OS(=O)(=O)O)C(OS(=O)(=O)O)C7OS(=O)(=O)O)C(OS(=O)(=O)O)C6OS(=O)(=O)O)nn5)CCC4(C)C3CCC12C (stereo not shown) .
Result block: 610

---

tested on: HUVEC proliferation induced by FGF-1; test: Growth factor induced endothelial cell proliferation assay, FGF-1; assay type: cell-based, human; conditions: Homo sapiens, HUVEC, 72 h; read-out: FGF-1 (IC50) inhibition of HUVEC proliferation
propertyLabel: pIC50
Quick note: pIC50 means taking -log10 of the concentration in moles per liter.

Would you please look over these solved cases?
CC(C)CCC[C@@H](C)[C@H]1CC[C@H]2[C@@H]3CC[C@H]4C[C@@H](OCc5cn([C@@H]6O[C@H](COS(=O)(=O)O)[C@@H](O[C@H]7O[C@H](COS(=O)(=O)O)[C@@H](OS(=O)(=O)O)[C@H](OS(=O)(=O)O)[C@H]7OS(=O)(=O)O)[C@H](OS(=O)(=O)O)[C@H]6OS(=O)(=O)O)nn5)CC[C@]4(C)[C@H]3CC[C@]12C : 5.39
CC(C)CCCC(C)C1CCC2C3CCC4CC(OCc5cn(C6OC(COS(=O)(=O)O)C(OC7OC(COS(=O)(=O)O)C(OS(=O)(=O)O)C(OS(=O)(=O)O)C7OS(=O)(=O)O)C(OS(=O)(=O)O)C6OS(=O)(=O)O)nn5)CCC4(C)C3CCC12C (stereo not drawn) : 5.57
CC(C)CCCC(C)C1CCC2C3CCC4CC(OC5OC(COS(=O)(=O)O)C(OC6OC(COS(=O)(=O)O)C(OS(=O)(=O)O)C(OS(=O)(=O)O)C6OS(=O)(=O)O)C(OS(=O)(=O)O)C5OS(=O)(=O)O)CCC4(C)C3CCC12C (stereo not drawn) : 5.40
CC(C)CCC[C@@H](C)[C@H]1CC[C@H]2[C@@H]3CC[C@H]4C[C@@H](O[C@H]5O[C@H](COS(=O)(=O)O)[C@@H](OS(=O)(=O)O)[C@H](OS(=O)(=O)O)[C@@H]5OS(=O)(=O)O)CC[C@]4(C)[C@H]3CC[C@]12C : 5.66

Now consider a different compound.
Query block: In one line, give reported pIC50 of the entry CC(C)CCC[C@@H](C)[C@H]1CC[C@H]2[C@@H]3CCC4CC(O[C@@H]5O[C@H](COS(=O)(=O)O)[C@@H](O[C@@H]6O[C@H](COS(=O)(=O)O)[C@@H](OS(=O)(=O)O)[C@H](OS(=O)(=O)O)[C@H]6OS(=O)(=O)O)[C@H](OS(=O)(=O)O)[C@H]5OS(=O)(=O)O)CC[C@]4(C)[C@H]3CC[C@]12C (stereo partly drawn) .
Result block: 5.24
